tested on: P388 mouse leukemia; experiment: P388 mouse leukemia test (comparison of 2-hydroxy isomers); format: in vivo; conditions: β-hydroxy versus α-hydroxy isomers
Result Type: antitumor activity in the P388 mouse leukemia test (in words)

Molecule: COc1cc2c(cc1O)N=C[C@@H]1C[C@H](O)CN1C2=O [BBM-2040B]
Result: marked activity
//
Molecule: COc1cc2c(cc1O)N[C@H](OC)[C@@H]1C[C@H](O)CN1C2=O [BBM-2040A]
Result: marked activity
